# TGI annotations
System: M19-MEL melanoma
Experiment: NCI tumour cell line growth inhibition, 48 h

molecule	TGI
CCOC(=O)C(=O)CC1=Nc2ccccc2SC(c2cccc(C)c2)C1 (configuration not stated)	40.9 µM
O=c1[nH]c2ccccc2nc1/C=C(\O)c1ccccc1O	> 100 µM
C=C1C(=O)O[C@@H]2[C@H](O)[C@@H](C)[C@@H]3C=CC(=O)[C@@]3(C)[C@@H](OC(=O)/C(C)=C/C)[C@H]12	1.22 µM
CCOC(=O)Oc1cc2c(c(OC)c1OC)-c1ccc(OC)c(=O)cc1C(NC(C)=O)CC2 (configuration not stated)	> 100 µM
Cc1cccc(C)c1NC(=O)C1=NC(=S)NC(c2ccccc2)C1c1nc2ccccc2s1 (configuration not stated)	> 100 µM
O=C1CC(c2ccccc2)=Nc2ccccc2N1	> 100 µM
Nc1ccc(C(=O)N/C(=C\c2cccc([N+](=O)[O-])c2)c2nc3[nH]c(=S)[nH]c(=O)c3[nH]2)cc1	> 100 µM
c1ccc(C2OC3(CCC[C@H]4C[C@H]43)O[C@H]2c2ccccc2)cc1 (some centres not stated)	84.8 µM
O=[N+]([O-])C(/C=N/Nc1ccccc1)/C=N/Nc1ccccc1	> 100 µM
O=C1/C=C(/c2ccc(O)cc2)[C@@H](O)Cc2ccc(O)cc2O1	> 100 µM
O=C1N2Cc3c4ccc5c3CN3C(=O)N6Cc7c(ccc(c7CN1C6(c1ccccc1)C23c1ccccc1)OCCOCCNCCOCCO4)OCCOCCNCCOCCO5 (configuration not stated)	> 100 µM
CN(C)CCNC(=O)c1cccc2cc3c(Cl)cccc3nc12	3.18 µM
